Target sequence: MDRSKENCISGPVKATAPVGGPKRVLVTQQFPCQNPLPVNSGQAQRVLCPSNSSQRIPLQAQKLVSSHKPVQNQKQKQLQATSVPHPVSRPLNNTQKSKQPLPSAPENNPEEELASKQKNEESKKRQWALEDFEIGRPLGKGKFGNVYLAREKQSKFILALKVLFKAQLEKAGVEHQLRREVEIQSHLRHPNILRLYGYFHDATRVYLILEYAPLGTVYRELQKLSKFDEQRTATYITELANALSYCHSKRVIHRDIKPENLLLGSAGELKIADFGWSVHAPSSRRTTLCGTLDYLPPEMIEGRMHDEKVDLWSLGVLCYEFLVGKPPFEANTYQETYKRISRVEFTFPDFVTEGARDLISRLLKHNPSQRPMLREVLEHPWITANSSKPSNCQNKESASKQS
assayMetric: IC50 (µM)
Quick note: give the figure in µM, leave out the unit.

`OCc1cn(CCCCc2ccccn2)c2ccc(Oc3ccc(O)cc3)cc12` has a reported IC50 of 79
